Target: T1, cynomolgus monkey CTLA4-his protein (Acro biosystems, Cat#CT4-C5227) (cynomolgus monkey, UniProt G7PL88 36-161)
T1 construct: bought recombinant protein; also called Cynomolgus CTLA4-his; not shown: his tag
T1 sequence: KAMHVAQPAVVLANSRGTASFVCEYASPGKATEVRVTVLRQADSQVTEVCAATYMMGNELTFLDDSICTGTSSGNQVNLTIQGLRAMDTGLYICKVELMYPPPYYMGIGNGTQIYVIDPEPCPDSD
Experiment: SPR, Biacore T200; antibody captured, CTLA4-his as analyte
metricName: koff
Answer format: value, then unit.

// mouse anti-CTLA4 monoclonal antibody D1H4 (antibody, V domains shown, mouse mAb purified from hybridoma supernatant) VH: EVQLQQSGPVLVKPGASVKMSCKASGYTFTDYYMNWVKQSHGKSLEWIGAINPDHGGSSYNQKFKGKATLTVDKSSSTAYMELNSLTSEDSAVYYCARDGSIHYVMDDWGQGTSVTVSS VL: DIVMSQSPSSLTVSAGDKVTMSCKSSQSLLHSGNQKNYLAWYQQKPWQPPKLLIYGASTRESGVPDRFTGSGSGTDFTLTISSVQAEDLAVYYCQNDYGYPYTFGGGTKLEIK : koff value = 0.000422 s⁻¹
